QUANTITY MEASURED: glass transition temperature (°C)

- COMPOUND: "*NNC(=O)c1ccc(C(=O)NNC(=O)c2ccc([Si](c3ccccc3)(c3ccccc3)c3ccc(C(*)=O)cc3)cc2)c2ccccc12 (repeat unit)"
  QUANTITY MEASURED: "glass transition temperature"
  MEASURE UNIT: "°C"
  REPORTED: 270.00
- COMPOUND: "*CCOC(=O)c1ccc(/C(C#N)=C(\\c2ccc(OC)cc2)N2CCC(*)CC2)cc1 (repeat unit)"
  QUANTITY MEASURED: "glass transition temperature"
  MEASURE UNIT: "°C"
  REPORTED: 167.00
- COMPOUND: "*CC(*)(C)C(=O)OCCCCCCOc1ccc(C(=O)Oc2ccc(C)cc2)cc1 (repeat unit)"
  QUANTITY MEASURED: "glass transition temperature"
  MEASURE UNIT: "°C"
  REPORTED: 45.00
- COMPOUND: "*CCCCCCOP(=O)(/N=N/c1ccc(C(=O)c2ccc(/N=N/P(=O)(O*)OC)cc2)cc1)OC (repeat unit)"
  QUANTITY MEASURED: "glass transition temperature"
  MEASURE UNIT: "°C"
  REPORTED: 31.00
- COMPOUND: "*Oc1cccc(Oc2ccc(C(=O)c3ccc(NC(=O)c4ccc(C(=O)Nc5ccc(C(=O)c6ccc(*)cc6)cc5)cc4)cc3)cc2)c1 (repeat unit)"
  QUANTITY MEASURED: "glass transition temperature"
  MEASURE UNIT: "°C"
  REPORTED: 190.00

a = *c1ccc(Oc2ccc(C(c3ccc(Oc4ccc(N5C(=O)c6ccc(-c7ccc8c(c7)C(=O)N(*)C8=O)cc6C5=O)cc4C(F)(F)F)cc3)(C(F)(F)F)C(F)(F)F)cc2)c(C(F)(F)F)c1 (repeat unit)
b = *CC(*)(C)C(=O)OCCCCCOc1ccc(OC(=O)c2ccc(OC)cc2)cc1 (repeat unit)
For a and b , which recorded glass transition temperature is lower? Write the label of whichever entry you select.
b
